TARGET OR SYSTEM: CYP4A11 (Homo sapiens)
Sequence (Q02928 whole entry): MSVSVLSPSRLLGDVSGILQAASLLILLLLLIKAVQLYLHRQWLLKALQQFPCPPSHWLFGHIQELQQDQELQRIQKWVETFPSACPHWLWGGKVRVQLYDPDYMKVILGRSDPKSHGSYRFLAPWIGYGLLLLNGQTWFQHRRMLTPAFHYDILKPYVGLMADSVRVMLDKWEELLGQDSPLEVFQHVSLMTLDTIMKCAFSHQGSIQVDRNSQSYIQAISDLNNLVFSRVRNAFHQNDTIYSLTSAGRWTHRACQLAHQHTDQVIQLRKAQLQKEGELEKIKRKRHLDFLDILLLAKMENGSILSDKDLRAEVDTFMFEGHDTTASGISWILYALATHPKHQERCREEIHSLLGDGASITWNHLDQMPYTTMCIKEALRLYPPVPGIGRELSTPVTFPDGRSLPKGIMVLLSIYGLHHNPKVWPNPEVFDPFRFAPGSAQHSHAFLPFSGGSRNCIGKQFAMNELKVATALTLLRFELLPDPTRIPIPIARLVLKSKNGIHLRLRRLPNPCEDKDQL
MEASUREMENT NOTES: Activity of recombinant human CYP4A11 expressed in Escherichia coli JM109 co-expressing P450 reductase assessed as enzyme-mediated drug metabolism measured as compound remaining after 1 hr by LC-MS analysis
Format: ADME
APPLIED CONDITIONS: read-out: Stability
RECORDED METRIC: remaining at 1 h

Sample `Cc1[nH]c2ccccc2c1CCNCc1ccc(/C=C/C(=O)NO)cc1` — what was its remaining at 1 h?
59%

* * *

TARGET OR SYSTEM: CYP2A6 (Homo sapiens, UniProt P11509)
Sequence (P11509 whole entry): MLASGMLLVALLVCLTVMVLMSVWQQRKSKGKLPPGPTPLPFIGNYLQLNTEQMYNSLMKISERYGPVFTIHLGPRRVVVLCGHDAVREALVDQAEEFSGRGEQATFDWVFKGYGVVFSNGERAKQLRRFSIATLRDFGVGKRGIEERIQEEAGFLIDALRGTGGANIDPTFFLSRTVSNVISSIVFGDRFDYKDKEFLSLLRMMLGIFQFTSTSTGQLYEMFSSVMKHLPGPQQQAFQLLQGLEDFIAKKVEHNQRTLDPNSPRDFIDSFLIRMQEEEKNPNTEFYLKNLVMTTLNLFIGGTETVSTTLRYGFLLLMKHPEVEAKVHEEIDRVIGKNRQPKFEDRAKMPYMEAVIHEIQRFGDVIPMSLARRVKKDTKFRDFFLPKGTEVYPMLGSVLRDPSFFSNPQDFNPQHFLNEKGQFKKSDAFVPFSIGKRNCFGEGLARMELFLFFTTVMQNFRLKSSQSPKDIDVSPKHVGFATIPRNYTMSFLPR
MEASUREMENT NOTES: Activity of recombinant human CYP2A6 expressed in Escherichia coli JM109 co-expressing P450 reductase assessed as enzyme-mediated drug metabolism measured as compound remaining after 1 hr by LC-MS analysis
Format: ADME
APPLIED CONDITIONS: read-out: Stability
RECORDED METRIC: remaining at 1 h
Respond with the figure and its unit, in that order.

API: value(readout= remaining at 1 h, system= CYP2A6 (Homo sapiens, UniProt P11509), query= Cc1[nH]c2ccccc2c1CCNCc1ccc(/C=C/C(=O)NO)cc1 [PANOBINOSTAT] )
81%

* * *

TARGET OR SYSTEM: Histone deacetylase 3 (Homo sapiens)
Sequence (O15379 whole entry): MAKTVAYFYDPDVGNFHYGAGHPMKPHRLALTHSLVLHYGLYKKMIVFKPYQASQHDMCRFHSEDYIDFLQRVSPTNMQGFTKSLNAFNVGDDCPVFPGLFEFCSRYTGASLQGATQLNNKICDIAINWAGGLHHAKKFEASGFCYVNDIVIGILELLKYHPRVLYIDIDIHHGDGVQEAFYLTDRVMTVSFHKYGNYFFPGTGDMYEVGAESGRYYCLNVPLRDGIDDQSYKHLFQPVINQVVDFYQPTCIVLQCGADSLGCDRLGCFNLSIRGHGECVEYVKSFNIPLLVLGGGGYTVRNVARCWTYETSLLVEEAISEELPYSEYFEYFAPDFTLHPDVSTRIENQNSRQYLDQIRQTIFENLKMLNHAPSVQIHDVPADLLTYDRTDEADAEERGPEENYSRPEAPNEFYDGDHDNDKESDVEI
MEASUREMENT NOTES: Inhibition of HDAC3 (unknown origin) expressed in HEK293 cells using [3H]acetylated human histone H4 peptide as substrate by scintillation counting
// reported pIC50 per item
Kindly note that pIC50 refers to -log10 of the concentration in mol/L and answer with the value alone.

Here are 3 compounds together with their reported answers.
C[C@@]12Nc3ccccc3[C@]1(O)CCN2Cc1ccc(/C=C/C(N)=O)cc1; 6.03
Cc1[nH]c2cc(O)ccc2c1CCNCc1ccc(/C=C/C(N)=O)cc1; 5.48
C[C@@]12Nc3ccccc3[C@]1(O)CCN2Cc1ccc(/C=C/C(=O)NO)cc1; 6.74

Proceeding to the next compound to report its pIC50.
Sample `Cc1[nH]c2ccccc2c1CCNCc1ccc(/C=C/C(N)=O)cc1` — what was its pIC50?
4.66

* * *

TARGET OR SYSTEM: CYP1A1 (Homo sapiens)
Sequence (P04798 whole entry): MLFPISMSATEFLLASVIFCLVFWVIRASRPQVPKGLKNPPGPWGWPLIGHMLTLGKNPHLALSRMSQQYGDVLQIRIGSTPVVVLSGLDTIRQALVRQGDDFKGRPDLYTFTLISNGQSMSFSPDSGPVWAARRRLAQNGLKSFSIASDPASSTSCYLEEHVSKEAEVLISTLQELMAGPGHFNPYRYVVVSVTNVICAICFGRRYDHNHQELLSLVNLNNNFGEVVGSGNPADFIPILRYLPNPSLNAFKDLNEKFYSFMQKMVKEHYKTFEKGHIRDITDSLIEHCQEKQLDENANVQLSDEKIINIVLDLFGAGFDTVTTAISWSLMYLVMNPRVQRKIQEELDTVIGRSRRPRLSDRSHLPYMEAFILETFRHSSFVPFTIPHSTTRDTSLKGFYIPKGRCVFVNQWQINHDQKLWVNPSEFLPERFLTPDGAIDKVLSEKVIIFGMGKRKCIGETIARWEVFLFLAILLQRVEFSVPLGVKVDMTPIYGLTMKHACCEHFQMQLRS
MEASUREMENT NOTES: Activity of recombinant human CYP1A1 expressed in Escherichia coli JM109 co-expressing P450 reductase assessed as enzyme-mediated drug metabolism measured as compound remaining after 1 hr by LC-MS analysis
Assay type: ADME
APPLIED CONDITIONS: read-out: Stability
RECORDED METRIC: remaining at 1 h (%)
Expressed in %, but write only the number.

API: value(readout= remaining at 1 h, system= CYP1A1 (Homo sapiens), query= Cc1[nH]c2ccccc2c1CCNCc1ccc(/C=C/C(=O)NO)cc1 [PANOBINOSTAT] )
61
